molecular target: Pim-2 (Homo sapiens (Human), UniProt Q9P1W9); assay: ADP-Glo Kinase Assay, Pim-2; type: biochemical; conditions: 1 μM compound; read-out: Pim-2 % INH (1 μM)
Sequence (Q9P1W9 whole entry): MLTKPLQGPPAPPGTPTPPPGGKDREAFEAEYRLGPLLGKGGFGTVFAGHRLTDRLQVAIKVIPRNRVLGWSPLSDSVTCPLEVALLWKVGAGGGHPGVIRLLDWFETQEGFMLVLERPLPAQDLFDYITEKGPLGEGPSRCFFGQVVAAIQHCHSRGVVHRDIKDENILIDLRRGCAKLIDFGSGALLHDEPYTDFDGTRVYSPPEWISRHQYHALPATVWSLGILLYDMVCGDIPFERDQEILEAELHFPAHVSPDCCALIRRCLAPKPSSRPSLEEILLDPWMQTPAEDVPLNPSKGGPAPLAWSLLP
Counter-ions that a name gives are not always drawn.
QUANTITY MEASURED: inhibition at 1 µM (%)
Use % as the unit, but write only the number.

{"COMPOUND": "CC(C)n1c(NC2CCNC2)nc2c([N+](=O)[O-])c(Br)c(Br)cc21 (centres unmarked)", "ENDPOINT UNIT": "%", "inhibition at 1 µM": 51}
{"COMPOUND": "CC(C)Cn1c(N2CCNCC2)nc2c([N+](=O)[O-])c(Br)c(Br)cc21", "ENDPOINT UNIT": "%", "inhibition at 1 µM": 69}
{"COMPOUND": "CC(C)n1c(N2CCN[C@H](C)C2)nc2c([N+](=O)[O-])c(Br)c(Br)cc21 [Example 22AA]", "ENDPOINT UNIT": "%", "inhibition at 1 µM": 36}

Noted for CC(C)n1c(NC2CCC(N)CC2)nc2c(C#N)c(Br)c(Br)cc21 (centres unmarked) : its inhibition at 1 µM reads 18

Noted for `CCn1c(N2CCC[C@H](N)C2)nc2c(C#N)c(Br)c(Br)cc21` : its inhibition at 1 µM reads 53

Noted for `CC(C)n1c(NCCCN)nc2c([N+](=O)[O-])c(Br)c(Br)cc21` : its inhibition at 1 µM reads 58

Noted for O=[N+]([O-])c1c(Br)c(Br)cc2c1nc(N1CCNCC1)n2C1CC1 [Example 21A, trifluoroacetate] : its inhibition at 1 µM reads 42

Noted for CC(O)Cn1c(N2CCNCC2)nc2c([N+](=O)[O-])c(Br)c(Br)cc21 (centres unmarked) : its inhibition at 1 µM reads 21

Origin of the recorded values: patent US10174013B2
